test system: HT-29; experiment: Cytotoxicity against human HT-29 cells after 48 hrs by MTT assay; assay type: functional, cell-based; conditions: HT-29, 48 h
pIC50: −log10 of the molar value.
RESULT TYPE: pIC50

>>> reading("Cc1cc2c(c(C)c1CCOS(=O)(=O)O)C(=O)[C@@H](C)[C@@H]2O")
4.16
>>> reading("C[C@@H]1C[C@@H]([C@H](O)CC2CC(=O)NC(=O)C2)C(=O)[C@@H](C)C1 [CYCLOHEXIMIDE]")
4.89

Ref: ChEMBL document CHEMBL1821648
